- Tested on: Tov-21-G
- EXPERIMENT: Primary qHTS to identify gynecologic anti-cancer compounds using libraries of approved drugs and bioactive compounds (AID 1345084); further: nearly all actives have a fitted effect of over 55% in size; further: potency means the concentration at half of the fitted maximal effect
- TEST PARAMETERS: Gynecologic cancer cell panel viability, ATPlite luminescence, 48 h; series mostly up to 57.5 µM
Results filed as inconclusive are left out. Active and inactive are the calls of the source. The call rests on the fitted dose curve; in most records, active means well fitted cell-killing curve with a large enough effect; inconclusive means small, poorly fitted or top-dose-only effect, or effect the other way; inactive means flat fitted curve, though single readings scatter.
MEASURED METRIC: Potency

Use the examples below as a reference point.
# COMPOUND, Potency
rows = [
    ("C[C@H](O)[C@H](O)/C=C/c1cccc(O)c1CO", "inactive"),
    ("CCNC(=O)C1OC(n2cnc3c(N)nc(NCCc4ccc(CCC(=O)O)cc4)nc32)C(O)C1O (configuration not stated)", "inactive"),
    ("O=C(O)c1ccc(CN2CCC(CN[C@@H]3C[C@H]3c3ccccc3)CC2)cc1", "inactive"),
    ("COc1ccc2c(OC)c3ccoc3nc2c1OC", "inactive"),
    ("COc1ccc(-c2ccc(-c3cn(C(=O)N4CCCCC4c4ccccc4)nn3)cc2)cc1 (configuration not stated)", "inactive"),
]

### Prompt # query: Potency | item CC1(C)CCC[C@@]2(C)C1[C@H](OC(=O)/C=C/C=C/C(=O)O)C=C1COC(=O)[C@@]12O (some centres not stated) | system: Tov-21-G
### Response inactive

### Prompt # query: Potency | item C[C@@H]1CC[C@]2(C(=O)O)CC[C@]3(C)C(=CCC4[C@@]5(C)CC[C@H](O)C(C)(C)C5C(O)C[C@]43C)[C@@H]2[C@]1(C)O (some centres not stated) | system: Tov-21-G
### Response inactive

### Prompt # query: Potency | item `CN[C@@H]1[C@H](O[C@H]2[C@H](O[C@@H]3[C@@H](O)[C@H](O)[C@@H](N=C(N)N)[C@H](O)[C@H]3N=C(N)N)O[C@@H](C)[C@]2(O)C=O)O[C@@H](CO)[C@H](O)[C@H]1O` | system: Tov-21-G
### Response inactive

### Prompt # query: Potency | item `CC(=O)c1cc(C(=O)N[C@@H](C)Cn2ccc(-c3ccc(C#N)c(Cl)c3)n2)[nH]n1` | system: Tov-21-G
### Response inactive

### Prompt # query: Potency | item CN(C)c1ccc2c(c1)OC(N)=C(C#N)C2c1cccc(C(F)(F)F)c1 (configuration not stated) | system: Tov-21-G
### Response 251 nM (active)

###

- System: KB-3-1
- EXPERIMENT: Cytotoxic Profiling of Annotated Libraries Using Quantitative High-Throughput Screening (AID 1296008); further: on the % scale 0 is the no-effect control and ±100 the full control effect; nearly all actives have a fitted effect of over 60% in size
- TEST PARAMETERS: Five cell lines viability, CellTiter-Glo ATP luminescence, 48-72 h; stronger effect = lower value
Inconclusive results are not listed.
In this section we review reported max response values for a set of compounds.
Your answer should be a plain number; it is taken to be in %.

Use the examples below as a reference point.
# COMPOUND, READOUT VALUE
measured = [
    ("CC(C)C(C(=O)N(C)C(C)C(N)=O)N(C)C(=O)C1CCCN1C(=O)/C=C/C=C/C(O)C(C)O (centres undefined)", 7.9),
    ("O=C(Nc1ccc(S(=O)(=O)Nc2nccs2)cc1)C(c1ccccc1)c1ccccc1", 5.78),
    ("O=S(=O)(c1ccc(S(=O)(=O)n2cnc3ccccc32)cc1)N1CCCCCC1", 6.01),
]

Turning now to a further record.
### Prompt Fill blank: measured max response of the compound `COC(=O)C1=CO[C@@H](O[C@@H]2O[C@H](CO)[C@@H](O)[C@H](O)[C@H]2O)[C@@H]2C(CO)=CC[C@]12O` is ____.
### Response 9.91
